// data source = ChEMBL document CHEMBL6109069

experiment: Inhibition of Bovine heart ATP synthase assessed as inhibition constant by Michaelis-Menten plot analysis; design: species or system Bos taurus; conditions: read-out: Ki
Non-standard residues stand in square brackets, D forms with d. Residues, ends and D or L forms follow the SMILES beside them. *: point of attachment. Leu(3R-OH) = CC(C)[C@@H](O)[C@H](N)C(=O)O; NH((S)CH(Me)CH2NMe2) = C[C@@H](CN(C)C)N*; NH(2-morpholinoethyl) = C(CN1CCOCC1)N*; Pro(4S-Me) = C[C@@H]1CN[C@H](C(=O)O)C1; NH(1-CH2NMe2-cBu) = CN(C)CC1(N*)CCC1; Oxazole4CO(2-Me) = Cc1nc(C(=O)*)co1; Benzoyl(4-F) = O=C(c1ccc(F)cc1)*; hCha = N[C@@H](CCC1CCCCC1)C(=O)O; NHCH2CH2NMe2 = CN(C)CCN*; Hexanoyl = CCCCCC(=O)*; Aib = CC(C)(N)C(=O)O; X2 = CN(CCN*)CC(F)F; βAla = NCCC(=O)O; tBu = CC(C)(C)*

MOLECULE	Ki (nM)
CC(C)C[C@H](NC(=O)[C@H](CC(C)C)NC(=O)C(C)(C)NC(=O)[C@@H](NC(=O)[C@H](CCC1CCCCC1)NC(=O)[C@@H]1C[C@H](C)CN1C(=O)c1ccc(F)cc1)[C@H](O)C(C)C)C(=O)NC(C)(C)C(=O)NC(C)(C)C(=O)NCCC(=O)N[C@@H](C)CN(C)C ({Benzoyl(4-F)}-[Pro(4S-Me)][hCha][Leu(3R-OH)][Aib]LL[Aib][Aib][βAla]-{NH((S)CH(Me)CH2NMe2)})	55
CCCCCC(=O)N1CCC[C@H]1C(=O)N[C@@H](CCC1CCCCC1)C(=O)N[C@@H](CC(C)C)C(=O)NC(C)(C)C(=O)N[C@@H](CC(C)C)C(=O)N[C@@H](CC(C)C)C(=O)NC(C)(C)C(=O)NC(C)(C)C(=O)NCCC(=O)N[C@@H](C)CN(C)C (Hexanoyl-P[hCha]L[Aib]LL[Aib][Aib][βAla]-{NH((S)CH(Me)CH2NMe2)})	139
Cc1nc(C(=O)N2CCC[C@H]2C(=O)N[C@@H](COC(C)(C)C)C(=O)N[C@@H](CC(C)C)C(=O)NC(C)(C)C(=O)N[C@@H](CC(C)C)C(=O)N[C@@H](CC(C)C)C(=O)NC(C)(C)C(=O)NC(C)(C)C(=O)NCCC(=O)NC2(CN(C)C)CCC2)co1 ({Oxazole4CO(2-Me)}-PS(tBu)L[Aib]LL[Aib][Aib][βAla]-{NH(1-CH2NMe2-cBu)})	18100
CC(C)C[C@H](NC(=O)[C@H](CCC1CCCCC1)NC(=O)[C@@H]1CCCN1C(=O)c1ccc(F)cc1)C(=O)NC(C)(C)C(=O)N[C@@H](CC(C)C)C(=O)N[C@@H](CC(C)C)C(=O)NC(C)(C)C(=O)NC(C)(C)C(=O)NCCC(=O)NCCN(C)CC(F)F ({Benzoyl(4-F)}-P[hCha]L[Aib]LL[Aib][Aib][βAla]-X2)	499
CC(C)C[C@H](NC(=O)[C@H](CCC1CCCCC1)NC(=O)[C@@H]1CCCN1C(=O)c1ccc(F)cc1)C(=O)NC(C)(C)C(=O)N[C@@H](CC(C)C)C(=O)N[C@@H](CC(C)C)C(=O)NC(C)(C)C(=O)NC(C)(C)C(=O)NCCC(=O)NCCN1CCOCC1 ({Benzoyl(4-F)}-P[hCha]L[Aib]LL[Aib][Aib][βAla]-{NH(2-morpholinoethyl)})	703
CC(C)C[C@H](NC(=O)[C@H](CCC1CCCCC1)NC(=O)[C@@H]1CCCN1C(=O)c1ccc(F)cc1)C(=O)NC(C)(C)C(=O)N[C@@H](CC(C)C)C(=O)N[C@@H](CC(C)C)C(=O)NC(C)(C)C(=O)NC(C)(C)C(=O)NCCC(=O)NCCN(C)C ({Benzoyl(4-F)}-P[hCha]L[Aib]LL[Aib][Aib][βAla]-NHCH2CH2NMe2)	455
